- System: HS 578T breast
- protocol summary: NCI tumour cell line growth inhibition, 48 h
recorded metric: GI50

Some entries whose results are on file:
>  <compound>
O=S(=O)(Nc1ccc(Cl)c(F)c1)c1ccc(-c2cnc(C3CC3)o2)cc1

>  <assay system>
HS 578T breast

>  <GI50>
355 nM

$$$$
>  <compound>
ClC(Cl)c1nc(-c2ccccc2)n2nc(-c3ccccc3)cc2n1

>  <assay system>
HS 578T breast

>  <GI50>
1910 nM

$$$$
>  <compound>
O=C1CCc2c(Oc3ccc4c(c3)[C@H]3[C@@H](O4)[C@@H]3c3nc4ccc(C(F)(F)F)cc4[nH]3)ccnc2N1

>  <assay system>
HS 578T breast

>  <GI50>
5410 nM

$$$$
>  <compound>
O=C(Nc1ccc(F)cc1F)c1cc(F)ccc1O

>  <assay system>
HS 578T breast

>  <GI50>
2370 nM

$$$$
>  <compound>
Nc1nc(/C=C\c2ccc([N+](=O)[O-])s2)nc(N2CCOCC2)n1

>  <assay system>
HS 578T breast

>  <GI50>
25600 nM

$$$$

Inquiry: Hello, I am looking for reported GI50 with HS 578T breast for COC(=O)c1c(C)c2n(c1C)C(=O)C(c1ccccc1)=C2 . Could you help?
Reply text: 8130 nM

Inquiry: Hello, I am looking for reported GI50 with HS 578T breast for Cc1ccc2cc3c(cc(C)c4ccccc43)c3c2c1CC3 . Could you help?
Reply text: 89100 nM

----------
Quick note: these are GI50 numbers for system: U251 CNS

Inquiry: For the compound shown here, COc1ccc(/C=C/C(=O)c2ccc(Cl)cc2Cl)cc1 , give the reported GI50.
Reply text: 13.2 µM

----------
A collection of molecules and their measured TGI
- Tested on: HT29 colon
- protocol summary: NCI tumour cell line growth inhibition, 48 h

Some entries whose results are on file:
>  <molecule>
CC[C@H](C)[C@H]1NC(=O)[C@@H](NC(=O)[C@@H](CC(C)C)N(C)C(=O)C2CCCN2C(=O)[C@H](C)O)[C@@H](C)OC(=O)[C@@H]2Cc3ccccc3CN2C(=O)[C@@H]2CCCN2C(=O)[C@H](CC(C)C)NC(=O)[C@@H](C)C(=O)[C@H](C(C)C)OC(=O)C[C@@H]1O (stereo partly drawn)

>  <result>
10.7 µM

$$$$
>  <molecule>
CC(=O)/C(=C/n1ccc(=O)[nH]c1=S)C(=O)Nc1ccccc1C

>  <result>
> 100 µM

$$$$
>  <molecule>
OC1c2[nH]c3ccccc3c2CCN2CCCCC12 (stereo not drawn)

>  <result>
> 100 µM

$$$$

Inquiry: For the molecule shown here, CCN(Cc1ccccn1)c1ccc(CO)c(Cl)c1 , give the reported TGI.
Reply text: > 100 µM

Inquiry: For the molecule shown here, NC(=O)c1c(Br)n(C2OC(CO)C(O)C2O)c2ncnc(N)c12 (stereo not drawn) , give the reported TGI.
Reply text: 32 µM

Inquiry: For the molecule shown here, CC(C)(O)[C@@H]1CC[C@](C)(C2[C@@H](O)C[C@@]3(C)C4C[C@H](OC5OCC(O)C(O)C5O)[C@H]5C(C)(C)[C@@H](OC6OCC(O)C(O)C6OC6OCC(O)C(O)C6O)CC[C@@]56C[C@@]46CC[C@]23C)O1 (stereo partly drawn) , give the reported TGI.
Reply text: > 100 µM

Inquiry: For the molecule shown here, O=c1oc2c3ccc4ccccc4c3n(CCCN3CCCCC3)c2c2ccccc12 , give the reported TGI.
Reply text: > 100 µM

Inquiry: For the molecule shown here, O=C(O)C(F)(F)C(F)(F)C(F)(F)C(F)(F)C(F)(F)C(F)(F)C(F)(F)C(F)(F)F , give the reported TGI.
Reply text: > 100 µM

Inquiry: For the molecule shown here, O=C(CC1(O)C(=O)Nc2ccccc21)c1ccc2ccccc2c1 (stereo not drawn) , give the reported TGI.
Reply text: > 100 µM

Values from PubChem BioAssay (NCI)
